These measurements were taken from patent US11807625B2.

# protocol: PK of compound of Formula (Ia) after single subcutaneous dose of solution formulations in beagle dogs
# Type: in vivo
# measurement.conditions: male, beagle, dog, plasma, sc, 6 mg/kg, 672 h; individual dogs; SC 6 mg/kg; solution V, 300 mg/mL
metric.name: concentration at 672 h (nM)
One number for each entry, in nM.

Q. Give the measured concentration at 672 h of `CC(C)(C#Cc1ccc(-c2ccc(Cl)c3c(NS(C)(=O)=O)nn(CC(F)(F)F)c23)c([C@H](Cc2cc(F)cc(F)c2)NC(=O)Cn2nc(C(F)(F)F)c3c2C(F)(F)[C@@H]2C[C@H]32)n1)S(C)(=O)=O` .
A. 95.3

----------
# protocol: PK of compound of Formula (Ia) after single subcutaneous dose of solution formulations in Wistar Han rats
# Format: in vivo
# measurement.conditions: male, Wistar Han, rat, plasma, sc, 50 mg/kg, Wistar Han rats, SC 50 mg/kg, 400 mg/mL solution AA (6.25% poloxamer 188), 48.0 h, Mean n = 4
# Method: Formulations containing the compound of Formula (Ia), or a pharmaceutically acceptable salt thereof, were prepared as solutions and optionally administered subcutaneously or intramuscularly to rats, rabbits, and/or dogs. A solution of about 400 mg/mL of the compound of Formula (Ia) having 19.14 w/w % water, 40.66 w/w % PEG 300, 35.20 w/w % of a sodium salt of a compound of Formula (Ia), and 5.00% ethanol was prepared. […]
metric.name: concentration at 48 h

Q. Entry under review: `CC(C)(C#Cc1ccc(-c2ccc(Cl)c3c(NS(C)(=O)=O)nn(CC(F)(F)F)c23)c([C@H](Cc2cc(F)cc(F)c2)NC(=O)Cn2nc(C(F)(F)F)c3c2C(F)(F)[C@@H]2C[C@H]32)n1)S(C)(=O)=O` . Reported concentration at 48 h?
A. 251 nM

----------
# protocol: PK of compound of Formula (Ia) after single subcutaneous dose of solution formulations in beagle dogs
# Type: in vivo
# measurement.conditions: male, beagle, dog, plasma, sc, 12 mg/kg, mean ± SD, n = 3 dogs; SC 12 mg/kg; solution U, 500 mg/mL; read-out: AUC0-168 h
metric.name: AUC(0-t) (µM·h)
One number for each entry, in µM·h.

Q. Look up AUC(0-t) for this compound: `CC(C)(C#Cc1ccc(-c2ccc(Cl)c3c(NS(C)(=O)=O)nn(CC(F)(F)F)c23)c([C@H](Cc2cc(F)cc(F)c2)NC(=O)Cn2nc(C(F)(F)F)c3c2C(F)(F)[C@@H]2C[C@H]32)n1)S(C)(=O)=O`
A. 12.9

----------
# protocol: PK of compound of Formula (Ia) after single subcutaneous dose of solution formulations in beagle dogs
# Type: in vivo
# measurement.conditions: male, beagle, dog, plasma, sc, 12 mg/kg, mean ± SD, n = 3 dogs; SC 12 mg/kg; solution U, 500 mg/mL
# Method: Formulations containing the compound of Formula (Ia), or a pharmaceutically acceptable salt thereof, were prepared as solutions and optionally administered subcutaneously or intramuscularly to rats, rabbits, and/or dogs. A solution of about 400 mg/mL of the compound of Formula (Ia) having 17.00 w/w % water, 36.40 w/w % PEG 300, 35.20 w/w % of a sodium salt of a compound of Formula (Ia), 5.00 w/w % ethanol, and 6.40 w/w % poloxamer 188 was prepared. […]
metric.name: Cmax (nM)
Give bare numbers, in nM.

Q. Cmax for CC(C)(C#Cc1ccc(-c2ccc(Cl)c3c(NS(C)(=O)=O)nn(CC(F)(F)F)c23)c([C@H](Cc2cc(F)cc(F)c2)NC(=O)Cn2nc(C(F)(F)F)c3c2C(F)(F)[C@@H]2C[C@H]32)n1)S(C)(=O)=O [compound of Formula (Ia)] ?
A. 175

----------
# protocol: PK of compound of Formula (Ia) after single subcutaneous dose of solution formulations in beagle dogs
# Type: in vivo
# measurement.conditions: male, beagle, dog, plasma, sc, 12 mg/kg, mean ± SD, n = 3 dogs; SC 12 mg/kg; solution T, 400 mg/mL; read-out: AUC0-1334 h
metric.name: AUC(0-t) (µM·h)
Give bare numbers, in µM·h.

Q. Could you tell me which AUC(0-t) is on file for `CC(C)(C#Cc1ccc(-c2ccc(Cl)c3c(NS(C)(=O)=O)nn(CC(F)(F)F)c23)c([C@H](Cc2cc(F)cc(F)c2)NC(=O)Cn2nc(C(F)(F)F)c3c2C(F)(F)[C@@H]2C[C@H]32)n1)S(C)(=O)=O` ?
A. 197

----------
# protocol: PK of compound of Formula (Ia) after single subcutaneous dose of solution formulations in Wistar Han rats
# Format: in vivo
# measurement.conditions: male, Wistar Han, rat, plasma, sc, 50 mg/kg, Wistar Han rats, SC 50 mg/kg, 400 mg/mL solution AA (6.25% poloxamer 188), 3696 h, Mean n = 4
metric.name: concentration at 3696 h (nM)
One number for each entry, in nM.

Q. Would you mind telling me what concentration at 3696 h value was observed for `CC(C)(C#Cc1ccc(-c2ccc(Cl)c3c(NS(C)(=O)=O)nn(CC(F)(F)F)c23)c([C@H](Cc2cc(F)cc(F)c2)NC(=O)Cn2nc(C(F)(F)F)c3c2C(F)(F)[C@@H]2C[C@H]32)n1)S(C)(=O)=O` ?
A. 65.7

----------
# protocol: PK of compound of Formula (Ia) after single subcutaneous dose of solution formulations in Wistar Han rats
# Format: in vivo
# measurement.conditions: male, Wistar Han, rat, plasma, sc, 50 mg/kg, Wistar Han rats, SC 50 mg/kg, 400 mg/mL solution W (5.00% ethanol, 1.57% poloxamer 188), 2352 h, Mean n = 3
metric.name: concentration at 2352 h (nM)
Numbers only, in nM.

Q. So what does the record say about concentration at 2352 h for `CC(C)(C#Cc1ccc(-c2ccc(Cl)c3c(NS(C)(=O)=O)nn(CC(F)(F)F)c23)c([C@H](Cc2cc(F)cc(F)c2)NC(=O)Cn2nc(C(F)(F)F)c3c2C(F)(F)[C@@H]2C[C@H]32)n1)S(C)(=O)=O` ?
A. 162

----------
# protocol: PK of compound of Formula (Ia) after single subcutaneous dose of solution formulations in beagle dogs
# Format: in vivo
# measurement.conditions: male, beagle, dog, plasma, sc, 12 mg/kg, beagle dogs, SC 12 mg/kg, 400 mg/mL solution AA (6.25% poloxamer 188), 96.0 h, Mean n = 3
metric.name: concentration at 96 h (µM)
Answers are plain numbers, in µM.

Q. Data request, read-out concentration at 96 h, for CC(C)(C#Cc1ccc(-c2ccc(Cl)c3c(NS(C)(=O)=O)nn(CC(F)(F)F)c23)c([C@H](Cc2cc(F)cc(F)c2)NC(=O)Cn2nc(C(F)(F)F)c3c2C(F)(F)[C@@H]2C[C@H]32)n1)S(C)(=O)=O [compound of Formula (Ia)]
A. 0.18

----------
# protocol: PK of compound of Formula (Ia) after single subcutaneous dose of solution formulations in beagle dogs
# Format: in vivo
# measurement.conditions: male, beagle, dog, plasma, sc, 12 mg/kg, beagle dogs, SC 12 mg/kg, 400 mg/mL solution AA (6.25% poloxamer 188), 3024 h, Mean n = 3
metric.name: concentration at 3024 h (nM)
Give bare numbers, in nM.

Q. // query concentration at 3024 h value for entry `CC(C)(C#Cc1ccc(-c2ccc(Cl)c3c(NS(C)(=O)=O)nn(CC(F)(F)F)c23)c([C@H](Cc2cc(F)cc(F)c2)NC(=O)Cn2nc(C(F)(F)F)c3c2C(F)(F)[C@@H]2C[C@H]32)n1)S(C)(=O)=O`
A. 3.54

----------
# protocol: PK of compound of Formula (Ia) after single intramuscular dose of solution formulations in Wistar Han rats
# Assay type: in vivo
# measurement.conditions: male, Wistar Han, rat, plasma, im, 100 mg/kg, Solution M (~500 mg/mL; Na salt, water, PEG 300, ethanol, poloxamer 188); single IM 100 mg/kg; male Wistar Han rats; mean ± SD, n = 4; read-out: AUC0-24h
metric.name: AUC(0-t) (µM·h)
Answers are plain numbers, in µM·h.

Q. Fill in the blank: the reported AUC(0-t) of CC(C)(C#Cc1ccc(-c2ccc(Cl)c3c(NS(C)(=O)=O)nn(CC(F)(F)F)c23)c([C@H](Cc2cc(F)cc(F)c2)NC(=O)Cn2nc(C(F)(F)F)c3c2C(F)(F)[C@@H]2C[C@H]32)n1)S(C)(=O)=O [compound of Formula (Ia)] is ____.
A. 13.4

----------
# protocol: PK of compound of Formula (Ia) after single subcutaneous dose of solution formulations in Wistar Han rats
# Assay type: in vivo
# measurement.conditions: male, Wistar Han, rat, plasma, sc, 50 mg/kg, male Wistar Han rats, single SC 50 mg/kg, 400 mg/mL solution Y (water, PEG 300), mean ± SD, n = 4; read-out: AUC0-1680 h
metric.name: AUC(0-t)

Q. Quick one: AUC(0-t) for `CC(C)(C#Cc1ccc(-c2ccc(Cl)c3c(NS(C)(=O)=O)nn(CC(F)(F)F)c23)c([C@H](Cc2cc(F)cc(F)c2)NC(=O)Cn2nc(C(F)(F)F)c3c2C(F)(F)[C@@H]2C[C@H]32)n1)S(C)(=O)=O` ?
A. 230 µM·h
